Hello, the source for this data is patent US20230235054A1, in case you need it.

Catalogue of koff values
Target: T1, huNectin4-His (human, UniProt Q96NY8 32-349)
T1 construct: Immobilized on the SPR chip; also called humanNectin4; human Nectin4; not shown: His tag
T1 sequence (looked up): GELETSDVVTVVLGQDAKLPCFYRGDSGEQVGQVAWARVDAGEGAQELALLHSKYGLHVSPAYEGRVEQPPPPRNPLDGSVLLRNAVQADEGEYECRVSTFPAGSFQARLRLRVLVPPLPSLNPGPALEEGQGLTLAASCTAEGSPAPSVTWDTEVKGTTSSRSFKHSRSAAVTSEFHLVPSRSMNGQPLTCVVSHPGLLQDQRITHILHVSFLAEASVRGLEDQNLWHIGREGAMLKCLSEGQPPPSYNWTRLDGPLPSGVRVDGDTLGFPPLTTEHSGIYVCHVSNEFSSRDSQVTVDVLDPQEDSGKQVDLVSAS
Assay: SPR, huNectin4-His immobilized, pH 6.0
Reply numerically in s⁻¹, unit not repeated.

Study these solved cases before continuing.
>  <binder>
BAP-143-00-03 (antibody, V domains shown, Used as a conjugate with a linker payload (CAB ADC)) VH: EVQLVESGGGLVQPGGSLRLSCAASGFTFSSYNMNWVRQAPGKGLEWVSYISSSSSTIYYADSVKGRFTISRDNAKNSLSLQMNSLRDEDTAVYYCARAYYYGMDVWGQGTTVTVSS VL: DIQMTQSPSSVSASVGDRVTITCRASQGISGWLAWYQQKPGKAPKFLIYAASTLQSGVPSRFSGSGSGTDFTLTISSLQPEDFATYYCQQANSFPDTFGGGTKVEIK

>  <unit_of_measure>
s⁻¹

>  <observed>
0.00122

$$$$
>  <binder>
BAP-143-00-05 (antibody, V domains shown, Used as a conjugate with a linker payload (CAB ADC)) VH: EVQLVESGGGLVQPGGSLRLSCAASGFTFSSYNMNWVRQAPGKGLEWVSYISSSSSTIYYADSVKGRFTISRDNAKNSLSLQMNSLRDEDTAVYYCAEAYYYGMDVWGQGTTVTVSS VL: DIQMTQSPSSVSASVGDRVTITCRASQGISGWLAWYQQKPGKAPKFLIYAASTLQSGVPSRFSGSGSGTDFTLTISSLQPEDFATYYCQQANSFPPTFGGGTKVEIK

>  <unit_of_measure>
s⁻¹

>  <observed>
0.00242

$$$$
>  <binder>
BAP-143-00-01 (antibody, V domains shown, Used as a conjugate with a linker payload (CAB ADC)) VH: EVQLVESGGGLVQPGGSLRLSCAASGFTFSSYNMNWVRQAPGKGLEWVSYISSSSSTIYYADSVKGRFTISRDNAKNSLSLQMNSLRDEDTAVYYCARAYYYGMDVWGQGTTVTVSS VL: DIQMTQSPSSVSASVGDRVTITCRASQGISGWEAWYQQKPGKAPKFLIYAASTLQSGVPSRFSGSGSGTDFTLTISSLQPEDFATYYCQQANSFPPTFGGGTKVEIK

>  <unit_of_measure>
s⁻¹

>  <observed>
0.00367

$$$$

Let's switch to this binder now.
Data request: Name the reported koff value associated with the binder BAP-143-00-04 (antibody, V domains shown, Used as a conjugate with a linker payload (CAB ADC)) VH: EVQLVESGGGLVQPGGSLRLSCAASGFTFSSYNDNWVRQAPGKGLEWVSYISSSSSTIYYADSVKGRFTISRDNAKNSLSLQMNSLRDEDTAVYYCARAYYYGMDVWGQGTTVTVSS VL: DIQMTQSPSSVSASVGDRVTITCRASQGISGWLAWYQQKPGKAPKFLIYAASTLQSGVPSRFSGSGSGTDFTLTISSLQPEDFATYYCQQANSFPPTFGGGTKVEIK
Data returned: 0.00155
